- TARGET_DESC: D(2) dopamine receptor (Rattus norvegicus)
- MEASUREMENT_PROTOCOL: Evaluated in vitro for the affinity towards Dopamine receptor D2 of rat striatal tissue
MEASURED_ATTRIBUTE: pKd
FYI, pKd means -log10 of a concentration in mol per litre.

// below: answered compounds
1. COc1cc(N=[N+]=[N-])c(I)cc1C(=O)NC1CCN(Cc2ccccc2)CC1 [IODOAZIDOCLEBOPRIDE]
7.85
2. CCN1CCC[C@H]1CNC(=O)c1c(OC)ccc(S(N)(=O)=O)c1I [IODOSULPIRIDE]
8.82

Field: next compound
Prompt: Which pKd is listed for CCN1CCC[C@H]1CNC(=O)c1c(OC)ccc(I)c1O [IOLOPRIDE] ?
Response: 9.37

----------
- Tested on: Rattus norvegicus
- MEASUREMENT_PROTOCOL: Biodistribution of [125I]IBF in brain/blood was determined in rats 30 minutes after intraveneous injection
- Assay type: ADME, organism-based
- EXPERIMENTAL_PARAMETERS: in vivo, iv, 0.5 h
MEASURED_ATTRIBUTE: Dose/organ
The answer should be a number; do not append a unit.

Prompt: Which Dose/organ is listed for CCN1CCC[C@H]1CNC(=O)c1cc(I)cc2c1OCC2 ?
Response: 2.26

----------
- TARGET_DESC: D(2) dopamine receptor (Rattus norvegicus)
- MEASUREMENT_PROTOCOL: Competitive binding assay against Dopamine receptor D2 in rat striatal membranes and [125I]-IBF radioligand
MEASURED_ATTRIBUTE: pKi
// pKi here means minus log10 of the molar concentration (mol/L)

Prompt: Consider the molecule shown here: NC1CCc2cc(O)c(O)cc2C1 (racemic) What is its recorded pKi?
Response: 7.18

----------
- Tested on: Rattus norvegicus
- MEASUREMENT_PROTOCOL: Biodistribution of [125I]IBF in brain/blood was determined in rats 15 minutes after intraveneous injection
- Type: ADME, organism-based
- EXPERIMENTAL_PARAMETERS: in vivo, iv, 0.25 h
MEASURED_ATTRIBUTE: Dose/organ
Lab note: jot down the number only; don't add units.

Prompt: Report Dose/organ for CCN1CCC[C@H]1CNC(=O)c1cc(I)cc2c1OCC2 please.
Response: 3.01

----------
- Test system: Rattus norvegicus
- MEASUREMENT_PROTOCOL: Biodistribution of [125I]IBF in brain/blood was determined in rats 120 minutes after intraveneous injection
- Assay type: ADME, organism-based
- EXPERIMENTAL_PARAMETERS: in vivo, iv, 2 h
MEASURED_ATTRIBUTE: Dose/organ
API doc: respond with a numeric literal and nothing else, no unit.

Prompt: Would you mind telling me what Dose/organ value was observed for CCN1CCC[C@H]1CNC(=O)c1cc(I)cc2c1OCC2 ?
Response: 1.53

----------
- TARGET_DESC: D(2) dopamine receptor (Rattus norvegicus, UniProt P61169)
- Sequence (P61169 whole entry): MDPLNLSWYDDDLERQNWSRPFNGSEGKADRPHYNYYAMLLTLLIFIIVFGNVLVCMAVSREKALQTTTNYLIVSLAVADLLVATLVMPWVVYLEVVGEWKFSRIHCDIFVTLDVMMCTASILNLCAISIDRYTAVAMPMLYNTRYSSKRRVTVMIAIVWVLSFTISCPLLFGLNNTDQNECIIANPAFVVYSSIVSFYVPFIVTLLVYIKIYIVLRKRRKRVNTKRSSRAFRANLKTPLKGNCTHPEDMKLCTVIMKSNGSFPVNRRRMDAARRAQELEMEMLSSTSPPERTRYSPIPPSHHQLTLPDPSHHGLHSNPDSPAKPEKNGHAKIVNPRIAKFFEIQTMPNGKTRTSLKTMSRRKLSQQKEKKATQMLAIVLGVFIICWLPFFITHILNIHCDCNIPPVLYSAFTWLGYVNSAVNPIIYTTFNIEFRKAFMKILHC
- MEASUREMENT_PROTOCOL: Evaluated in vitro for the affinity towards Dopamine receptor D2 of rat striatal tissue
MEASURED_ATTRIBUTE: Kd

1) CN1CN(c2ccccc2)C2(CCN(CCCC(=O)c3ccc(F)cc3)CC2)C1=O
0.097 nM
2) O=C(CCCN1CCC2(CC1)C(=O)NCN2c1ccccc1)c1ccc(F)cc1I
0.25 nM

Moving on to the next compound.
Prompt: Field: Kd (D(2) dopamine receptor (Rattus norvegicus, UniProt P61169)). Entry: CCN1CCC[C@H]1CNC(=O)c1cc(I)ccc1OC [IODOPRIDE]
Response: 3 nM

Ref: ChEMBL document CHEMBL1125116
